Item-by-item account of Rmax (RU)
System: mAb 7D8
Procedure summary: Surface plasmon resonance of mAb 7D8 binding to amino-coupled peptopes
Condition info: Langmuir with Mass Transfer; 7D8 2.7 nM

Reference set (3 entries):
- Monomer sequence: "KAQKAQAKQAKQAQKAQKAQAKQAKQGPGHEDT [p77, KAQKAQAKQAKQAQKAQKAQAKQAKQGPGHEDT]"
  System under test: "mAb 7D8"
  Rmax (RU): "429 RU"
- Monomer sequence: "KAQKAQAKQAKQAQKAQKAQAKQAKQGGGHEDT [p76, KAQKAQAKQAKQAQKAQKAQAKQAKQGGGHEDT]"
  System under test: "mAb 7D8"
  Rmax (RU): "302 RU"
- Monomer sequence: "KAQKAQAKQAKQAQKAQKAQAKQAKQAQHEDT [p75, KAQKAQAKQAKQAQKAQKAQAKQAKQAQHEDT]"
  System under test: "mAb 7D8"
  Rmax (RU): "765 RU"

Turning to the following sequence.
Read the entry KAQKAQAKQAKQAQKAQKAQAKQAKQVTVHEDT [p78, KAQKAQAKQAKQAQKAQKAQAKQAKQVTVHEDT] and write its reported Rmax (RU). 502 RU
